Tested on: MDA-MB-435
Labels: 1 (active), -1 (inactive)

[
  {
    "ITEM SMILES": "COC(=O)Nc1nc2ccc(Oc3ccc(NC(=O)Nc4ccccc4)cc3)cc2[nH]1",
    "SYSTEM": "MDA-MB-435",
    "CLASS ASSIGNMENT": 1
  },
  {
    "ITEM SMILES": "Cc1ccc(/C(=C/C=C(C#N)C#N)Sc2ccc(Cl)cc2)cc1",
    "SYSTEM": "MDA-MB-435",
    "CLASS ASSIGNMENT": -1
  },
  {
    "ITEM SMILES": "Nc1ncc(-c2cnn(CCO)c2)c2scc(-c3ccc(NC(=O)Nc4cccc(F)c4)cc3)c12",
    "SYSTEM": "MDA-MB-435",
    "CLASS ASSIGNMENT": 1
  },
  {
    "ITEM SMILES": "O=C(N/N=C/c1cccc(O)c1O)c1ccccc1",
    "SYSTEM": "MDA-MB-435",
    "CLASS ASSIGNMENT": -1
  },
  {
    "ITEM SMILES": "Fc1cc(F)c(COc2cc(Cn3cnc4c(Cl)nc(Cl)nc43)ccc2C23CC4CC(CC(C4)C2)C3)cc1F",
    "SYSTEM": "MDA-MB-435",
    "CLASS ASSIGNMENT": -1
  }
]

###

Tested on: SNB-75 CNS
Assay: NCI tumour cell line growth inhibition, 48 h
Each entry below lists one item and its recorded TGI value.
PROPERTY NAME: TGI (µM)

[
  {
    "COMPOUND": "Cc1[nH]c(=O)[nH]c(=O)c1/C=C/C(=O)NC(CO)CC(C)C (stereo not given)",
    "VALUE OPERATOR": ">",
    "VALUE REPORTED": 375
  },
  {
    "COMPOUND": "CCCN(CCc1ccc(-c2ccccc2)cc1)CCc1ccc2n[nH]nc2c1",
    "VALUE OPERATOR": "=",
    "VALUE REPORTED": 30.6
  },
  {
    "COMPOUND": "COc1cc(NC(=O)c2cc(O)c(CC=C(C)C)c(O)c2)cc2c1O[C@]1(C)CC[C@@H](O)C(C)(C)[C@H]1C2",
    "VALUE OPERATOR": "=",
    "VALUE REPORTED": 25.9
  },
  {
    "COMPOUND": "O=C1CSC(c2ccccc2)N1c1nc2cc3sc(N4C(=O)CSC4c4ccccc4)nc3cc2s1 (stereo not given)",
    "VALUE OPERATOR": ">",
    "VALUE REPORTED": 92.3
  },
  {
    "COMPOUND": "CC1=NN(c2ccccc2)C2(C1)C(Cl)C(=O)N2c1nc2ccccc2s1 (stereo not given)",
    "VALUE OPERATOR": ">",
    "VALUE REPORTED": 100
  },
  {
    "COMPOUND": "CC1CN1CC(O)C(O)CN1CC1C (stereo not given)",
    "VALUE OPERATOR": ">",
    "VALUE REPORTED": 63
  },
  {
    "COMPOUND": "CC(C)=CCc1c(O)cc(O)c2c1OC(c1ccc(O)cc1)C(O)C2=O (stereo not given)",
    "VALUE OPERATOR": "=",
    "VALUE REPORTED": 99
  },
  {
    "COMPOUND": "CCSc1nnc(Sc2c3ccccc3nc3ccccc23)s1",
    "VALUE OPERATOR": ">",
    "VALUE REPORTED": 100
  },
  {
    "COMPOUND": "CCN1C(=O)CNc2ncc(-c3ccc(-c4ncn[nH]4)nc3C)nc21",
    "VALUE OPERATOR": "=",
    "VALUE REPORTED": 0.321
  },
  {
    "COMPOUND": "Cc1cc(S(=O)(=O)Nc2nc(N)nc(N3N=CCC3C)n2)c(SCC(=O)O)cc1Cl (stereo not given)",
    "VALUE OPERATOR": ">",
    "VALUE REPORTED": 10
  }
]

Source of measurements: PubChem BioAssay (NCI)
